B1: Retinoic acid receptor RXR-alpha, residues 132 to 208; numbered along this chain, P19793 (parent)
chain: KHICAICGDRSSGKHYGVYSCEGCKGFFKRTVRKDLTYTCRDNKDCLIDKRQRNRCQYCRYQKCLAMGMKREAVQEE

variants of: B1; assay: abundance fitness (aPCA) (normalised: wild type 0, dead -1); higher = more abundant; growth selection in yeast, the domain comes from the species named; conditions: Homo sapiens
Returns one of met or not met; met when abundance fitness is >= -0.2.

Answered examples (8):
INSERT INTO results (sequence_variant, class) VALUES
  ('G17Y', 'met'),
  ('A5N', 'met'),
  ('C24K', 'not met'),
  ('K50C', 'met'),
  ('K29F', 'met'),
  ('K50Q', 'met'),
  ('C46I', 'not met'),
  ('R10F', 'met');

Incoming: I'd appreciate it if you could say whether C7A has abundance fitness at least equal to -0.2.
Outgoing: not met
